Please provide measured EC50 for the entries that follow.
system: influenza virus (A/HPB/359/95 (H3N2)); assay: organism not typed; settings: MDCK, read-out: Anti-IAV EC50
Answer with a number only, understood to be in pM.

Tested on influenza virus (A/HPB/359/95 (H3N2)): `C[C@@]1(N2[C@@H]3COC4(CC4)CN3C(=O)c3c(O)c(=O)ccn32)c2ccccc2[Se]Cc2c1ccc(F)c2F` . Observed EC50: 100

Entry O=C1c2c(O)c(=O)ccn2N([C@@H]2c3ccccc3SCc3c2ccc(F)c3F)[C@@H]2COC3(CC3)CN12 [Compound M41, reference compound] : EC50 on influenza virus (A/HPB/359/95 (H3N2)) = 630

Reading of EC50 for `[2H][C@@]1(N2[C@@H]3COC4(CC4)CN3C(=O)c3c(O)c(=O)ccn32)c2ccccc2[Se]Cc2c1ccc(F)c2F` with influenza virus (A/HPB/359/95 (H3N2)): 140

Item `COC(=O)OCOc1c2n(ccc1=O)N([C@]1(C)c3ccccc3[Se]Cc3c1ccc(F)c3F)[C@@H]1COC3(CC3)CN1C2=O` ; assay system influenza virus (A/HPB/359/95 (H3N2)); EC50 reported as 430

Record for `C[C@@]1(N2[C@@H]3COC4(CC4)CN3C(=O)c3c(OP(=O)(O)O)c(=O)ccn32)c2ccccc2[Se]Cc2c1ccc(F)c2F` under target or system influenza virus (A/HPB/359/95 (H3N2)): EC50 reported as 170

The reported influenza virus (A/HPB/359/95 (H3N2)) EC50 of `[2H]C([2H])([2H])OC(=O)OCOc1c2n(ccc1=O)N([C@]1([2H])c3ccccc3[Se]Cc3c1ccc(F)c3F)[C@@H]1COC3(CC3)CN1C2=O` is 100

====

So I've got a bunch of compounds here, and I need their EC50 values.
tested on: influenza virus (A/HPB/359/95 (H3N2)); test: organism not typed; conditions: MDCK, read-out: Anti-IAV EC50
Could you give me the number in nM? Just the number is fine.

// sample [2H][C@@]1(N2[C@@H]3COC4(CC4)CN3C(=O)c3c(OP(=O)(O)O)c(=O)ccn32)c2ccccc2[Se]Cc2c1ccc(F)c2F [DS14911] , its EC50 was 0.19

Entry under test: [2H][C@@]1(N2[C@@H]3COC4(CC4)CN3C(=O)c3c(OCOP(=O)(O)O)c(=O)ccn32)c2ccccc2[Se]Cc2c1ccc(F)c2F [DS1498] . Its EC50 was 0.31

The compound identified as O=C1c2c(OP(=O)(O)O)c(=O)ccn2N([C@@H]2c3ccccc3[Se]Cc3c2ccc(F)c3F)[C@@H]2COC3(CC3)CN12 [DS14910] registered its EC50 at 0.21

Data point: [2H]C([2H])([2H])OC(=O)OCOc1c2n(ccc1=O)N([C@@H]1c3ccccc3[Se]Cc3c1ccc(F)c3F)[C@@H]1COC3(CC3)CN1C2=O [DS1833] ; EC50 = 0.11

Just so you know, measured EC50 for [2H]C([2H])([2H])OC(=O)OCOc1c2n(ccc1=O)N([C@]1([2H])c3ccccc3SCc3c1ccc(F)c3F)[C@@H]1COC3(CC3)CN1C2=O [DS1838] came out at 0.52

====

Assignment: determine reported EC50 for the given compounds.
tested on: influenza virus (A/HPB/359/95 (H3N2)); test: organism not typed; details: MDCK, read-out: Anti-IAV EC50
Please give a number only; it is taken to be in nM.

The measured EC50 associated with `O=C1c2c(O)c(=O)ccn2N([C@@H]2c3ccccc3[Se]Cc3c2ccc(F)c3F)[C@@H]2COC3(CC3)CN12` reads 0.2

Reported EC50 for `CCOP(=O)(OCC)OCOc1c2n(ccc1=O)N([C@@H]1c3ccccc3[Se]Cc3c1ccc(F)c3F)[C@@H]1COC3(CC3)CN1C2=O` was 0.19

Quick note, EC50 for `O=C1c2c(OCOP(=O)(O)O)c(=O)ccn2N([C@@H]2c3ccccc3[Se]Cc3c2ccc(F)c3F)[C@@H]2COC3(CC3)CN12` landed at 0.37
